Provide the recorded Cas9 with SSAP activity (normalized) for the entries that follow.
Tested on: gene editing with Cas9
experimental.protocol: Screen of 322 new SSAP proteins, gene editing activity with Cas9 (Table 5)
Format: cell-based
cond: normalized
Lab note: record just the number, no unit beside it.

query: What does the record list as Cas9 with SSAP activity (normalized) for SSAP_71: SEQ ID NO: 240 (protein) SNNELLAKPVEFEVNGEAVKLTGKTVKNFLVSGNGEVSDQEVVMFINLCKYQKLNPFLNEAYLVKFKSKSGPDKPAQVIVSKEAFMKRAEKHPNYEGFEAGIIVERDGQLVDIEGAIKLTNDKLVGGWARVYRSDRQKPITTRISLSEFSKGQSTWNSMPLTMIRKSAIVNAQREAFPETLGALYTEDDAKLDTTSSHDQEQVIEQEIKTKANQEVIDVEYTEESEQKSPQQEQTETTQAGPGF ?
result: −2.283

query: Check SSAP_300: SEQ ID NO: 469; Lactobacillus sp. (protein, listed as Lactobacillus sp.) NSLSGALNSRNQAGSPTSMIKNLMRSDSIKNRFDEVMGAKAPQFMASITNLVNSNQDLQHVDAMSVVASAMVAATLDLPIDPNLGYMYIVPYRGQAQPQMGYKGYIQLALRTGQYKHINALPVYDDEVKSWNPLTEELEYESSGTSHDNQTPAGYVGYFQLINGFEKTTYWTYDQINSHRQKFSKMSSKTDPTGVWKSNFDAMALKTVLRNLISKWGIMSIEMQQAFVKDERPQEFDHETGEIQDVQEVEAEEENVAPETQGSTDKKEE too.
result: −0.701

The origin of these recorded values is patent US20250034594A1.
